Values from PubChem BioAssay AID431

- ASSAY NAME: viability loss of HPDE-C7K cells – cell-based, fluorescence, HTS, primary screen (AID 431);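 note: 0% = DMSO solvent wells and 100% = doxorubicin-treated wells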
- SETUP CONDITIONS: HPDE-C7K KRASV12 cells, Alamar Blue viability, 48 h; at 10 µM; active compounds read high
Among all 63,000 compounds or so, about 1,100 (1.7%) were called active. For the sample, actives were picked, then their nearest neighbours and some compounds at random. Potency and affinity values are given separately.
MEASUREMENT TYPE: cytotoxicity (%)

[[record]]
molecule = "Cc1ccc2[nH]c3c(c2c1)CN(C(=O)CN1CCN(c2ccccc2F)CC1)CC3"
measurement_type = "cytotoxicity"
value = 22.5

[[record]]
molecule = "Cn1c(COc2ccccc2)nnc1SCC(=O)Nc1ccc2c(c1)OCO2"
measurement_type = "cytotoxicity"
value = 9.4

[[record]]
molecule = "Cc1nn(C)cc1C1C2=C(CC(C)(C)CC2=O)OC2=C1C(=O)CC(C)(C)C2"
measurement_type = "cytotoxicity"
value = 2.9

[[record]]
molecule = "Cc1ccc2[nH]c3c(c2c1)CN(C(=O)CN1CCN(c2ccccc2)CC1)CC3"
measurement_type = "cytotoxicity"
value = 24.5

[[record]]
molecule = "COc1ccc(Cl)c(S(=O)(=O)N2CCCC2)c1"
measurement_type = "cytotoxicity"
value = -3.5

[[record]]
molecule = "Cc1ccc2[nH]c3c(c2c1)CN(C(=O)CN1CCCc2ccccc21)CC3"
measurement_type = "cytotoxicity"
value = 54.4

[[record]]
molecule = "COC(=O)C1=C(N)OC2=C(C(=O)CC(C)(C)C2)C1c1ccoc1 (stereo not given)"
measurement_type = "cytotoxicity"
value = -4

[[record]]
molecule = "Cc1ccc2c(c1)-c1ccccc1S(=O)(=O)N2"
measurement_type = "cytotoxicity"
value = 11.5

[[record]]
molecule = "Cc1cccc(S(=O)(=O)C(C#N)c2nc3ccccc3nc2N2CC(C)OC(C)C2)c1 (stereo not given)"
measurement_type = "cytotoxicity"
value = 7.7

[[record]]
molecule = "CCC1S/C(=C(\\C#N)C(=O)NCc2ccco2)N(c2ccc(F)cc2)C1=O (stereo not given)"
measurement_type = "cytotoxicity"
value = -16.6


* * *

The entries below come with measured cytotoxicity values attached.
- ASSAY NAME: viability loss of HPDE-C7K cells – cell-based, fluorescence, HTS, primary screen (AID 431);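 note: 0% = DMSO solvent wells and 100% = doxorubicin-treated wells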
- SETUP CONDITIONS: HPDE-C7K KRASV12 cells, Alamar Blue viability, 48 h; at 10 µM; active compounds read high
Hit rate of the full screen: of about 63,000 compounds, about 1,100 (1.7%) were called active. This is one part of a sample in which actives are shown more often than they occur. Results with a measured potency or affinity are listed apart.
MEASUREMENT TYPE: cytotoxicity (%)

[[record]]
molecule = "CCOC(=O)c1cc2c(ccn2C)n1CC(=O)N1CCN(c2ccc(F)cc2)CC1"
value = -18.9

[[record]]
molecule = "Cc1ccccc1OCCCC(=O)Nc1ccc(N2CCOCC2)cc1"
value = 1.2

[[record]]
molecule = "C=CCn1c(=N)c(C(=O)OC)cc2c(=O)n3cccc(C)c3nc21"
value = -26.9

[[record]]
molecule = "c1ccc(-c2csc(Nc3cccnc3)n2)nc1"
value = 4.5

[[record]]
molecule = "CCNC(=O)C1CC(=O)N(Cc2ccc3c(c2)OCO3)C(=Nc2ccc(OCC)cc2)S1 (configuration not stated)"
value = 10

[[record]]
molecule = "COCCN(CC(=O)NCc1ccccc1)C(=O)CCC(=O)Nc1ccccn1"
value = 4.7

[[record]]
molecule = "CNC(=O)C1CC(=O)N(Cc2ccc3c(c2)OCO3)C(=Nc2ccc(F)cc2)S1 (configuration not stated)"
value = -2.3

[[record]]
molecule = "c1cncc(C(c2nnnn2C2CCCC2)N2CCCC2)c1 (configuration not stated)"
value = 6

[[record]]
molecule = "O=C(COc1ccccc1Cl)NCc1ccncc1"
value = -2.3

[[record]]
molecule = "COc1ccc(C2C(C(=O)N3CCCC3)CC(=O)N2c2ccc(OC)cc2)cc1 (configuration not stated)"
value = 1.8

[[record]]
molecule = "COC(=O)c1sccc1NC(=O)c1ccc(OC)cc1"
value = 13.2

[[record]]
molecule = "CCN(CC)c1ccc(NC(=O)C2CCCN(S(=O)(=O)c3cccnc3)C2)c(C)c1 (configuration not stated)"
value = -9.5

[[record]]
molecule = "COc1cc(C2C(C(=O)OC(C)C)=C(C)Nc3[nH]c(=O)[nH]c(=O)c32)ccc1O (configuration not stated)"
value = -5.8

[[record]]
molecule = "CC1CC(C)CN(C(=O)Cn2c(=O)n(CCCCC(=O)NC3CCCC3)c(=O)c3ccccc32)C1 (configuration not stated)"
value = -3.9

[[record]]
molecule = "Cc1ccc(-n2nc(C)c3c(-c4cccs4)c(C#N)c(N)nc32)cc1"
value = 4

[[record]]
molecule = "CCNC(=O)C1CC(=O)N(Cc2ccc3c(c2)OCO3)C(=Nc2ccc(F)cc2)S1 (configuration not stated)"
value = 62.1

[[record]]
molecule = "CCCC(N)CCCCCC(=O)O (configuration not stated)"
value = 4.3

[[record]]
molecule = "COc1cc(-c2c(C#N)c(N)nc3c2c(C)nn3-c2ccc(C)c(C)c2)cc(OC)c1OC"
value = 57.8

[[record]]
molecule = "CN(Cc1ccco1)C(=O)Cn1c(=O)oc2cc(S(=O)(=O)NCc3ccccc3)ccc21"
value = 13.3

[[record]]
molecule = "Cc1nn(-c2ccccc2)c2nc(N)c(C#N)c(-c3ccc(F)cc3)c12"
value = 10.8

[[record]]
molecule = "Cc1cccc(Nc2nc(-c3ccccn3)cs2)n1"
value = 10.2

[[record]]
molecule = "CCSC(SCC)[C@H](O)[C@@H](O)[C@H](O)[C@H](O)CO"
value = -20.9

